Target: recombinant human MASP2 (amino acids 297-686, C-terminal His Tag) (human, UniProt O00187 297-686)
Sequence (O00187 other isoform, or with tags, fused parts or gaps limits assumed): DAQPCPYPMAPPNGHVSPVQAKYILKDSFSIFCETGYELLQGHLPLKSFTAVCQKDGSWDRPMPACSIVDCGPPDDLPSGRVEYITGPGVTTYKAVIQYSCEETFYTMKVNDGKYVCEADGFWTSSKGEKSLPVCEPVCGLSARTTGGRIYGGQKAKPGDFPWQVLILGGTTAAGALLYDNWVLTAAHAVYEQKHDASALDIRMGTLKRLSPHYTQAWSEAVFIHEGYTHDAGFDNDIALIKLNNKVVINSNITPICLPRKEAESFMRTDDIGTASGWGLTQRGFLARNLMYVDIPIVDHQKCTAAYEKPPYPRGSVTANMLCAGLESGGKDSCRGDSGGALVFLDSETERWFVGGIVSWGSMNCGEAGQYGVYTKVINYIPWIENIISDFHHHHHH
Assay: cell-based or functional assay
Bridges are numbered along the chain shown (N, C = ends). Where no end group is shown, it is not given here. [ ]: non-standard residue; d: D form. Oic = O=C(O)[C@@H]1C[C@@H]2CCCC[C@@H]2N1; tBuAla = CC(C)(C)C[C@H](N)C(=O)O; Pen = CC(C)(S)[C@H](N)C(=O)O; Dap = NC[C@H](N)C(=O)O; Ahx = NCCCCCC(=O)O
// label = Satisfied if human MASP2 IC50 is not less than 200 nM, otherwise Not satisfied

Prompt line: Could you please find out whether KICSRS[tBuAla]PPI[Pen]I (lactam 1-C; disulfide 3-11; also: TFA salt) [Example 67: K++-IC+SRS-((tBu)A)-PPI-(Pen)+-I**] has human MASP2 IC50 that meets 200 nM or exceeds it?
Response line: Not satisfied

Prompt line: Could you please find out whether cyclo(AGAICSRS[tBuAla]PPI[Pen]IPD) (disulfide 5-13; also: TFA salt) [Example 26: A**GAIC+SRS-((tBu)A)-PPI-(Pen)+-IPD**] has human MASP2 IC50 that meets 200 nM or exceeds it?
Response line: Not satisfied

Prompt line: Could you please find out whether CAICSRS[tBuAla]PPI[Pen]IPDC-NH2 (disulfide 1-16, 4-12; also: TFA salt) [Example 50: C++AIC+SRS-((tBu)A)-PPI-(Pen)+-IPDC++-NH2] has human MASP2 IC50 that meets 200 nM or exceeds it?
Response line: Satisfied

Prompt line: Could you please find out whether [Ahx]AICSRSLP[Oic]I[Pen]IPE-NH2 (disulfide 4-12; lactam N-15; also: TFA salt) [Example 74: (Ahx)**-AIC+SRSLP-(Oic)-I-(Pen)+-IPE++-NH2] has human MASP2 IC50 that meets 200 nM or exceeds it?
Response line: Not satisfied

Prompt line: Could you please find out whether [Dap]ICSRSLP[Oic]I[Pen]IP (lactam 1-C; disulfide 3-11; also: TFA salt) [Example 85: (Dap)++-IC+SRSLP-(Oic)-I-(Pen)+-IP**] has human MASP2 IC50 that meets 200 nM or exceeds it?
Response line: Satisfied

All figures here come from patent US20240010684A1.
